# Protocol Summary: Quantitative High-Throughput drug screen in 47 multiple myeloma cell lines against the NCATS MIPE library collection: KHM11_PLB cell viability assay (AID 1918962); note: potency is the fitted concentration of half-maximal effect; nearly all actives have a fitted effect of over 35% in size
# Cond: KHM11 myeloma cell viability, CellTiter-Glo ATP luminescence, 48 h; series mostly up to 45.8 µM
# Description: PI: Beverly A. Mock Ph.D. Laboratory of Cancer Biology and Genetics, Center for Cancer Research, National Cancer Institute, National Institute of Health, Bethesda, Maryland […] 5; Detector; 425V; Luminescence; Viewlux PerkinElmer. […] 1. […] Briefly, the corresponding myeloma cell lines were screened in 1,536-well plates with 500 cells, 5-uL per well for inhibition of cell viability (assessed by measuring ATP levels with CellTiterGlo). […]
Results filed as inconclusive are left out. The source made the active and inactive calls. Calls come from the whole dose curve; as a rule, active = well fitted cell-killing curve with a large enough effect; inconclusive = small, poorly fitted or top-dose-only effect, or effect the other way; inactive = no such curve, though single readings can be large or run the other way.
Task for the reader: assign each of the following compounds its reported Potency.

Past entries and their recorded results:
CC(=O)NCC(=O)N1[C@H]2CC[C@H]1c1cc(Nc3ncc(C(F)(F)F)c(NC4CCC4)n3)ccc12 ... 526 nM (active)
CC(C)C[C@H](NC(=O)[C@@H](NC(=O)c1cccc(-c2ccccc2)n1)[C@@H](C)O)B(O)O ... 18.7 nM (active)
CN(CC(=O)N(Cc1ccc(C2CCCCC2)cc1)c1ccc(C(=O)O)c(O)c1)S(=O)(=O)c1c(F)c(F)c(F)c(F)c1F ... 14800 nM (active)

Kindly review the next compound as well.
Record `CCOc1cc2ncc(C#N)c(Nc3ccc(OCc4ccccn4)c(Cl)c3)c2cc1NC(=O)C=CCN(C)C` . Reported Potency: 935 nM (active)

---

# Protocol Summary: qHTS Screen of the MIPE 4.0 Collection Against Ewings Sarcoma (TC32) (AID 1259256); note: nearly all actives have a fitted effect of over 45% in size
# Cond: TC32 Ewing sarcoma viability, CellTiter-Glo, 48 h; series mostly up to 45.8 µM
Inconclusive results are not listed. The source made the active and inactive calls. The call rests on the fitted dose curve; in most records, active means well fitted inhibition curve with a large enough effect; inconclusive means small, poorly fitted or top-dose-only effect; inactive means no such curve, though single readings can be large or run the other way.
Valid outcomes are listed here; reply with one: t for active, f for inactive

Completed entries (count: 3):
N#Cc1ccc(COC[C@H]2O[C@@H](n3c(NCc4ccc(Cl)c(Cl)c4)nc4c(N)ncnc43)[C@@H](O)[C@@H]2O)cc1 ... t
CCOC(=O)N1CCN([N+]([O-])=NOc2ccc([N+](=O)[O-])cc2C#N)CC1 ... t
C=C1C(=CC=C2CCC[C@]3(C)[C@@H]([C@H](C)CCCC(C)(C)O)CC[C@@H]23)C[C@@H](O)C[C@@H]1O ... t

Please indicate how the test categorized `CC(C)N1[N]C(=C2C=c3cc(O)ccc3=N2)c2c(N)ncnc21` .
t

Please indicate how the test categorized CC(C(C)N1CC(=O)NC(=O)C1)N1CC(=O)NC(=O)C1 (stereo not given) .
f

---

# Protocol Summary: Quantitative High-Throughput drug screen in 47 multiple myeloma cell lines against the NCATS MIPE library collection: KMS11_JCRBsus cell viability assay (AID 1919873); note: nearly all actives have a fitted effect of over 50% in size
# Cond: KMS11 myeloma viability, CellTiter-Glo ATP luminescence, 48 h; series mostly up to 45.8 µM
Inconclusive results are not listed. Calls of active or inactive are those of the source. Calls come from the whole dose curve; as a rule, active = well fitted cell-killing curve with a large enough effect; inconclusive = small, poorly fitted or top-dose-only effect, or effect the other way; inactive = no such curve, though single readings can be large or run the other way.
Valid outcomes are listed here; reply with one: active, inactive

C=C1C(=CC=C2CCC[C@]3(C)[C@@H]([C@H](C)CCCC(C)(C)O)CC[C@@H]23)C[C@@H](O)C[C@@H]1O ... active

Please indicate how the test categorized `CCc1nc(-c2cccc(C)c2)c(-c2ccnc(NC(=O)c3ccccc3)c2)s1` .
active

Please indicate how the test categorized Cc1ccc(O)c(C(CCN(C(C)C)C(C)C)c2ccccc2)c1 (stereo unspecified) .
inactive

---

# Tested on: MKL-2
# Protocol Summary: qHTS assay to identify novel small-molecules to repurpose for Merkel cell carcinoma treatment (AID 1296009); note: nearly all actives have a fitted effect of over 60% in size
# Cond: MCC and control cell lines, CellTiter-Glo viability, 72 h; series mostly up to 46 µM
Results filed as inconclusive are left out. Active and inactive are the calls of the source. Calls come from the whole dose curve; as a rule, active = well fitted inhibition curve with a large enough effect; inconclusive = small, poorly fitted or top-dose-only effect; inactive = flat fitted curve, though single readings scatter.
Valid outcomes are listed here; reply with one: active, inactive

CC(C(C)N1CC(=O)NC(=O)C1)N1CC(=O)NC(=O)C1 (stereo not drawn) ... inactive
COc1cccc2c1C(=O)c1c(O)c3c(c(O)c1C2=O)C[C@@](O)(C(C)=O)C[C@H]3O[C@H]1C[C@H](N)[C@H](O)[C@H](C)O1 ... active
C[C@@H]1[C@H](C)CC[C@]2(C(=O)O)CC[C@]3(C)C(=CC[C@@H]4[C@@]5(C)C[C@@H](O)[C@H](O)[C@@](C)(CO)[C@H]5CC[C@]43C)[C@@H]12 ... inactive
CN(C)c1ccc(C(=O)NCCCCCCC(=O)NO)cc1 ... active
C=CC(=O)N1CCc2ccc(-n3c(=O)ccc4cnc5ccc(-c6cnn(C)c6)cc5c43)cc21 ... active
O=C1CSC(=O)N1C(CCc1ccncc1)COc1ccc(-c2cccc([N+](=O)[O-])c2)cc1 (stereo not drawn) ... active
Cc1ccc2nc(NCCN)c3ncc(C)n3c2c1 ... active

Could you now consider this next compound?
Please indicate how the test categorized `CCC(C=C[C@@H]1OC(=O)C=C[C@H]1C)=C[C@H](C)CC=CC(C)=C[C@@H](C)C(=O)[C@@H](C)[C@H](O)[C@@H](C)CC(C)=CC(=O)O` .
active

---

Task for the reader: assign each of the following molecules its reported max response.
# System: HaCat
# Protocol Summary: Cytotoxic Profiling of Annotated Libraries Using Quantitative High-Throughput Screening (AID 1296008); note: % is set by controls: 0 for no effect and ±100 for the full control effect; nearly all actives have a fitted effect of over 60% in size
# Cond: Five cell lines viability, CellTiter-Glo ATP luminescence, 48-72 h; hits give low values
Results filed as inconclusive are left out. The source made the active and inactive calls. Calls follow the shape of the dose curve; as a rule, active = well fitted inhibition curve with a large enough effect; inconclusive = small, poorly fitted or top-dose-only effect; inactive = flat fitted curve, though single readings scatter.

Nc1ncn([C@@H]2O[C@H](CO)[C@@H](O)[C@@H]2O)c(=O)n1 ... -5.4% (inactive)
CN(C)c1ccc2cc(C(=O)N[C@@H](CCCN=C(N)CCl)C(=O)NCc3ccccc3)ccc2c1 ... -9.24% (inactive)
Cc1cc(O)c2c(c1)C(=O)c1cccc(O)c1C2=O ... -2.05% (inactive)
C=C[C@@H]1CN2CCC1C[C@H]2[C@H](O)c1ccnc2ccc(OC)cc12 (stereo not given in full) ... -13.1% (inactive)
N#Cc1c(C2CCNCC2)cc(-c2c(O)cccc2OCC2CC2)nc1N ... -15.5% (inactive)
COc1ccc(C=Cc2cc(OC)c(OC)c(OC)c2)cc1NC(=O)[C@H](N)CO ... 4.22% (inactive)
CON=C(C(=O)N[C@@H]1C(=O)N2C(C(=O)O)=C(Cn3ccc(=N)n3CCO)CS[C@H]12)c1csc(N)n1 ... 4.51% (inactive)
CC(C)N(CC[C@H](c1ccccc1)c1cc(CO)ccc1O)C(C)C ... -1.81% (inactive)
CC(=O)O[C@H]1C[C@@H]2CC[C@H]3[C@H]4C[C@H]([N+]5(C)CCCCC5)[C@@H](OC(C)=O)[C@@]4(C)CC[C@@H]3[C@@]2(C)C[C@H]1N1CCCCC1 ... -11.8% (inactive)

Kindly review the next molecule as well.
Record `CCCCCCCCCCCCc1ccc(S(=O)(=O)Nc2nncs2)cc1` . Reported max response: -11% (inactive)

---

# Protocol Summary: Quantitative High-Throughput drug screen in 47 multiple myeloma cell lines against the NCATS MIPE library collection: VP6_DJ cell viability assay (AID 1919867); note: nearly all actives have a fitted effect of over 40% in size
# Cond: ATP luminescence, 48 h; series mostly up to 45.8 µM
# From the text: PI: Beverly A. Mock Ph.D. Laboratory of Cancer Biology and Genetics, Center for Cancer Research, National Cancer Institute, National Institute of Health, Bethesda, Maryland […] 5; Detector; 425V; Luminescence; Viewlux PerkinElmer. […] 1. […] Briefly, the corresponding myeloma cell lines were screened in 1,536-well plates with 500 cells, 5-uL per well for inhibition of cell viability (assessed by measuring ATP levels with CellTiterGlo). […]
Records with an inconclusive call do not appear. Activity calls are given as the source filed them. Calls come from the whole dose curve; as a rule, active = well fitted cell-killing curve with a large enough effect; inconclusive = small, poorly fitted or top-dose-only effect, or effect the other way; inactive = no such curve, though single readings can be large or run the other way. Starred links: 1 amine or outer side, 2 acyl side, 3 side chain; linkers in the order of their positions; H or OH if unused. Positions of bridges follow the written chain, without caps; N, C: chain ends. Non-standard residues stand in square brackets, D forms with d. Residues, ends and D or L forms follow the SMILES beside them. Chains are numbered I, II in the order given. Actinocin(9to1) = Cc1c2oc3c(C)ccc(C(=O)[*:1])c3nc-2c(C(=O)[*:2])c(N)c1=O; NMeV = CN[CH](C(=O)O)C(C)C; Sar = CNCC(=O)O
Valid outcomes are listed here; reply with one: active, inactive

Completed entries (count: 6):
COc1cc(N2CCC(C(N)=O)CC2)ccc1Nc1nc(N)c(Cl)c(Nc2ccccc2S(=O)(=O)C(C)C)n1 ... active
C[C@H](NCc1ccc(OCc2cccc(F)c2)cc1)C(N)=O ... active
Cn1c(Nc2ccc(C(F)(F)F)cc2)nc2cc(Oc3ccnc(-c4ncc(C(F)(F)F)[nH]4)c3)ccc21 ... active
CC(C=CC1=C(C)CCCC1(C)C)=CC=CC(C)=CC(=O)Nc1ccc(O)cc1 ... active
CN(C)CC(=O)N1CCC(c2ccc(NC(=O)c3ncc(C#N)[nH]3)c(C3=CCCCC3)c2)CC1 ... active
O=C(C=CC#Cc1cccc(NS(=O)(=O)c2ccccc2)c1)NO ... active

Please indicate how the test categorized `CC(=O)O[C@H]1C[C@@H]2CC[C@H]3[C@H]4C[C@H]([N+]5(C)CCCCC5)[C@@H](OC(C)=O)[C@@]4(C)CC[C@@H]3[C@@]2(C)C[C@H]1N1CCCCC1` .
inactive

Please indicate how the test categorized `N#Cc1c(C2CCNCC2)cc(-c2c(O)cccc2OCC2CC2)nc1N` .
active

Please indicate how the test categorized `Nc1ccc(C(=O)Nc2cccc(-c3nc(N4CCOCC4)c4oc5ncccc5c4n3)c2)cn1` .
active

Please indicate how the test categorized `CCCCCCCCc1ccc(CCC(N)(CO)CO)cc1` .
active

Please indicate how the test categorized `NC(=NCCCCCCN=C(N)N=C(N)Nc1ccc(Cl)cc1)N=C(N)Nc1ccc(Cl)cc1` .
active

Please indicate how the test categorized `C=Cc1c(C)c2cc3nc(cc4[nH]c(cc5nc(cc1[nH]2)C(C)=C5CCC(=O)O)c(CCC(=O)OC)c4C)[C@@]1(C)C3=CC=C(C(=O)OC)[C@H]1C(=O)OC` .
active

Please indicate how the test categorized `CCN(CC)CCNC(=O)c1c(C)[nH]c(C=C2C(=O)Nc3ccc(F)cc32)c1C` .
active

Please indicate how the test categorized `COc1ccc(S(=O)(=O)Nc2cc(-c3c(O)ccc4ccccc34)c(O)c3ccccc23)cc1` .
active

Please indicate how the test categorized `CC(=O)ON=C1C(c2c(O)[nH]c3cc(Br)ccc23)=Nc2ccccc21` .
active

Please indicate how the test categorized `Nc1ccn(C[C@@H](CO)OCP(=O)(O)O)c(=O)n1` .
inactive

Please indicate how the test categorized `COc1cc(C(=O)NC2CCN(C)CC2)ccc1Nc1ncc2c(n1)N(C1CCCC1)CCC(=O)N2C(C)C` .
active

Please indicate how the test categorized `N#CC(=C(O)c1ccc(Cl)cc1Cl)c1nc2cc(Cl)ccc2c(=O)[nH]1` .
active

Please indicate how the test categorized CC(C(C)N1CC(=O)NC(=O)C1)N1CC(=O)NC(=O)C1 (stereo not drawn) .
inactive

Please indicate how the test categorized `Cc1cc(-c2nnc3n2CCCCC3)c(C)n1-c1ccccc1` .
inactive

Please indicate how the test categorized `O=c1c(O)c(-c2ccc(O)c(O)c2)oc2cc(O)ccc12` .
active

Please indicate how the test categorized `CC[C@H]1OC(=O)[C@H](C)[C@@H](O[C@H]2C[C@@](C)(OC)[C@@H](O)[C@H](C)O2)[C@H](C)[C@@H](O[C@@H]2O[C@@H](C)C[C@H](N(C)C)[C@@H]2O)[C@](C)(O)C[C@@H](C)C(=O)[C@H](C)[C@@H](O)[C@]1(C)O` .
inactive

Please indicate how the test categorized `O=C(O)C=Cc1ccc(Cn2ccnc2)cc1` .
inactive

Please indicate how the test categorized COc1ccc2c(c1OC)C(=O)OC2[C@H]1c2c(cc3c(c2OC)OCO3)CCN1C (stereo partly drawn) .
active

Please indicate how the test categorized `Cc1cn([C@@H]2O[C@H](CO)[C@@H](O)[C@H]2F)c(=O)[nH]c1=O` .
active

Please indicate how the test categorized N[C@H]1CN(c2c(F)cc3c(=O)c(C(=O)O)cn(C4C[C@@H]4F)c3c2Cl)CC12CC2 (stereo partly drawn) .
inactive

Please indicate how the test categorized Cc1c2oc3c(C)ccc(C(=O)NC4C(=O)NC(C(C)C)C(=O)N5CCCC5C(=O)N(C)CC(=O)N(C)C(C(C)C)C(=O)OC4C)c3nc-2c(C(=O)NC2C(=O)NC(C(C)C)C(=O)N3CCCC3C(=O)N(C)CC(=O)N(C)C(C(C)C)C(=O)OC2C)c(N)c1=O (stereo not drawn) (I: TVP[Sar][NMeV] / II: TVP[Sar][NMeV]; ester I:1-I:C, II:1-II:C; linker I:N-II:N via Actinocin(9to1); configuration not given here) .
inactive

Please indicate how the test categorized `CC(C)C[C@H](NC(=O)[C@@H](NC(=O)c1cccc(-c2ccccc2)n1)[C@@H](C)O)B(O)O` .
active

Please indicate how the test categorized `CCOc1cc2ncc(C#N)c(Nc3ccc(OCc4ccccn4)c(Cl)c3)c2cc1NC(=O)C=CCN(C)C` .
active

Please indicate how the test categorized `NC1=N[C@H]2[C@H](CS[C@H]2CCCCC(=O)O)N1` .
inactive
